- targetOrTestSystem: Human ALDH3A1 (Homo sapiens)
- Sequence (P30838 whole entry): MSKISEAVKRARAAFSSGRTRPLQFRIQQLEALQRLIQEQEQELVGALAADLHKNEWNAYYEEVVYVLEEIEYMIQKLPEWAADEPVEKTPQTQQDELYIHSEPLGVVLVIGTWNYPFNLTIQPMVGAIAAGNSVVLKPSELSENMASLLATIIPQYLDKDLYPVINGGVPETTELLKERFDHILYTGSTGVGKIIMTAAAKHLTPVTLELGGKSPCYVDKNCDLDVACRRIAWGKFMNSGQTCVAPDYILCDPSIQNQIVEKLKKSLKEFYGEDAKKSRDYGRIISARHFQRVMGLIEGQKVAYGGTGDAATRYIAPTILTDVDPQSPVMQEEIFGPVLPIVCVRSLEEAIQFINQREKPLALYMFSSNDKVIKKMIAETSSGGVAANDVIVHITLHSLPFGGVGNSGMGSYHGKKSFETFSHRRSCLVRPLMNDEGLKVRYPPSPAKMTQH
- assayDetails: ALDH3A1 biochemical assay (benzaldehyde/NADP+, diaphorase-resazurin readout, 1,536-well)
- testSettings: Table S4, biochemical curve class
endpointLabel: CC-v2

• Cc1cccc(CNC(=O)c2csc(N3CCN(c4cccc(C#N)c4)CC3)n2)c1 = -1.1
• COc1ccccc1N1CCN(c2nc(C(=O)NCc3cccc(C)c3)cs2)CC1 = -1.1
• COC(=O)c1ccc(N2CCN(c3nc(C(=O)NCc4cccc(C)c4)cs3)CC2)cc1 = -1.2
• Cc1cccc(CNC(=O)c2csc(N3CCN(c4cccc([S+](=O)([O-])C(F)(F)F)c4)CC3)n2)c1 = -1.2
